Attribution: the NIST ThermoML archive (doi:10.1016/j.jct.2018.01.003)

- experiment: activity coefficient (dimensionless); of the first substance listed, at infinite dilution; xn = mol fraction of the nth substance listed
- measurement_conditions: 358.15 K; 101.33 kPa; Liquid; Chromatography; x1 = 0
Threshold check on activity coefficient: at or above 1 gives true, strictly below gives false.

Example results:
| compound | answer_label |
| --- | --- |
| CCCCO [butan-1-ol] + CCCCCCCCCCCCCC[P+](CCCCCC)(CCCCCC)CCCCCC.N#CC(=C=[N-])C#N | false |
| C1CCCCCCC1 [cyclooctane] + CCCCCCCCCCCCCC[P+](CCCCCC)(CCCCCC)CCCCCC.N#CC(=C=[N-])C#N | true |
| C=CCCCCCCCC [1-decene] + CCCCCCCCCCCCCC[P+](CCCCCC)(CCCCCC)CCCCCC.N#CC(=C=[N-])C#N | true |

Task item: Textbook exercise: given the entry CCc1ccccc1 [ethylbenzene] + CCCCCCCCCCCCCC[P+](CCCCCC)(CCCCCC)CCCCCC.N#CC(=C=[N-])C#N , state whether its activity coefficient is greater than or equal to 1.
Reply: false

Task item: Form field: activity coefficient at least 1? Entry: C=CCCCCCC [oct-1-ene] + CCCCCCCCCCCCCC[P+](CCCCCC)(CCCCCC)CCCCCC.N#CC(=C=[N-])C#N
Reply: true

Task item: Does the compound C1CCCCCC1 [cycloheptane] + CCCCCCCCCCCCCC[P+](CCCCCC)(CCCCCC)CCCCCC.N#CC(=C=[N-])C#N have recorded activity coefficient that is 1 or more?
Reply: true

Task item: Hello, I need to know if C#CCCCC [1-hexyne] + CCCCCCCCCCCCCC[P+](CCCCCC)(CCCCCC)CCCCCC.N#CC(=C=[N-])C#N has measured activity coefficient not below 1. Thanks!
Reply: false
